Source: the supplement of paper PMC8728848

- target: Gal(b1-4)GlcNAc(a1-6)Gal(b1-4)GlcNAc
- measurement-notes: glycan array binding signal (z-score within array); higher = stronger binding
- condition-context: glycan notation: IUPAC condensed, linker removed
The full list was thinned out, with the strongest signals kept by preference.
Could you please report measured glycan array binding signal (z-score) for the items listed next?
Give bare numbers.

The cases that follow already have their glycan array binding signal (z-score) on record.
Gal 4 (Homo sapiens), Q8K419 (protein) MAYVPAPGYQPTYNPTLPYKRPIPGGLSVGMSVYIQGMAKENMRRFHVNFAVGQDDGADVAFHFNPRFDGWDKVVFNTMQSGQWGKEEKKKSMPFQKGKHFELVFMVMPEHYKVVVNGNSFYEYGHRLPVQMVTHLQVDGDLELQSINFLGGQPAAAPYPGAMTIPAYPAGSPGYNPPQMNTLPVMTGPPVFNPRVPYVGALQGGLTVRRTIIIKGYVLPTARNFVINFKVGSSGDIALHLNPRIGDSVVRNSFMNGSWGAEERKVAYNPFGPGQFFDLSIRCGMDRFKVFANGQHLFDFSHRFQAFQMVDTLEINGDITLSYVQI : -0.188
AMA (Arum maculatun) (protein) MAKLLLLLLLPAIVGLAVPRSAAAVGSNYMLSGETLNTDGRLTNGELTLIMQVDCNLVLYHGGWQSNTANNGRDCKLTLTDFGELVIKSGTGSTVWSSGSKQSMKGNYAAVVHPEGRLVIYGPSVFKINPSGAGLNGLPLRNIPLTNNMLFSGQVLYGDGTLSARNHKLVMQGDCNMVLYGGKYGWQSNTHGNGKYCFAMLTHKGELVIRDDDFKSVWSSKSSSKQGDYVFILQDDSLAIIYGPAVFSTGSKKMISMVTN : -0.215
CAA (Caragana arborescens) (protein) VAVEFDTFDNPDWDPRTKHIGIDVNSIRSNKTTQWGFWNRQVADVDISYEASSKTLNVSLYYPGESYIVTDVVDLKDILPEWVRIGF : -0.241
VLRB.aGPA.23-GCN4-biotin (Petromyzon marinus) (protein) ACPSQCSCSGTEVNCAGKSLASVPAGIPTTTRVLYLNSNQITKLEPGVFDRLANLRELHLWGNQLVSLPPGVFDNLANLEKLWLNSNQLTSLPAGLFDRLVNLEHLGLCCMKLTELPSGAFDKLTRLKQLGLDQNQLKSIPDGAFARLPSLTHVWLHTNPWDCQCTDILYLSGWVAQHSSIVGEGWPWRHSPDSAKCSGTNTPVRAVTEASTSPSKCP : -0.077

Lookup: Param item = Adiponectin (Rattus norvegicus), Q8K3R4 (protein) MLLLQALLFLLILPSHEGITATEGPGALVPPPKETCAGWMAGIPGYPGHNGIPGRDGRDGTPGEKGEKGDAGVLGPKGDPGDAGMTGAEGPRGFPGTPGRKGEPGEAAYMYHSAFSVGLETRVTVPNVPIRFTKIFYNQQNHYDGSTGKFHCNIPGLYYFSYHITVYMKDVKVSLFKKDKAVLFTYDQYQEKNVDQASGSMLLHLEVGDQVWLQVYGEGDNNGLYADNVNDSTFTGFLLYHDTN ; retrieve measured glycan array binding signal (z-score).
Found: -0.335
